Source of measurements: patent US20230374147A1

Attribute: Cyno BCMA response
# studyTarget: T1, His-tagged cynomolgous macaque BCMA (Acro Biosystems, BCA-C52H7) (cynomolgus macaque, UniProt Q02223 1-54 (human entry))
# T1 construct: Bought protein; also called cyno BCMA; CyBCMA; not shown: His tag
# procedureSummary: BLI, His-tagged cynomolgus BCMA on HIS1K tip

539-SP7-F4 hIgG1 (antibody, V domains shown, Human-mouse chimeric antibody, human IgG1 format) VH: EVQLQQSGPELVKPGASMKISCKASGYSFTGYIMNWVKQSHGKNLEWIGLINPYNGDSIYNQKFKGKATLTVDKSSSTAYMELFSLTSEDSTVYYCAAGEEFAYWGQGTLVTVSA VL: DIQMTQTSSSLSASLGDRVTISCRASQDISIYLNWFQQKPDGTVKLLIYFTSRLHPGVPSRFSASGSGTDYSLTISHLEHEDIATYFCQQGNTLPRTFGGGTKVELKR | 1.36
552-LN1-F4 hIgG1 (antibody, V domains shown, Human-mouse chimeric antibody, human IgG1 format; also called [7]) VH: QIQLVQSGPELKKPGETVKISCMASGYTFTDYSVRWVKQAPGKGLEWMGWINTETGEPTYAHDFKGRFAFSLETSASTAYLQINNLKDEDTSTYFCAISYYYALDYWGHGTSVTVSS VL: DIVLTQSPASLTVSLGQRATISCRASKSVSTSGYNFLHWYQQKPGQPPKLLIYLASNLESGAPARFSGSGSGTDFTLNIHPVEEEDAATYYCQHSRELPRTFGGGTKLEIKR | 0.918

Attention now shifts to the item below.
Recorded Cyno BCMA response for 552-LN1-E9 hIgG1 (antibody, V domains shown, Human-mouse chimeric antibody, human IgG1 format; also called [6]) VH: QIQLVQSGPELKKPGETVKISCKASGYTFTDYSIYWVKQAPGKGLKWMGWINTETGEPTYADDFKGRFAFSLETSASSAYLQINTLKNEDTATYFCSISYYYAMDYWGQGTSVTVSS VL: DIVLTQSPASLAVSLGQRATISCRASKSVSTSGYSFLHWYQQKPGQPPKLLIYFASNLESGVPARFSGSGSGTDFTLNIHPVEEEDAATYYCQHSRELPRTFGGGTKLEIKR , please?
1.8
